# assayed target: GLP-1R (Homo sapiens)
# Sequence (P43220 24-463): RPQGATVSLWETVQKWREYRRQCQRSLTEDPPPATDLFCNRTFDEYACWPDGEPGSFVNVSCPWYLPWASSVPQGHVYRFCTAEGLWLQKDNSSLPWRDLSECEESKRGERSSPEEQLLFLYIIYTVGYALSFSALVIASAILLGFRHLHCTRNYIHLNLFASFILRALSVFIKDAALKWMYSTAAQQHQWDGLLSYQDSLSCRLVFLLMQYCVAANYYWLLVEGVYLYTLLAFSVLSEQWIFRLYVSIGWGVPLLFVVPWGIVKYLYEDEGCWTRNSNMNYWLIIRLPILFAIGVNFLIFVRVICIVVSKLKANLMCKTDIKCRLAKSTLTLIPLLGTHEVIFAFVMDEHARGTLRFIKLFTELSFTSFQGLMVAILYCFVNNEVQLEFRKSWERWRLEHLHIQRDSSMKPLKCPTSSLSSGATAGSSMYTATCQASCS
# test protocol: GLP-1R activation: cAMP increase in CHO cells stably expressing GLP-1R
# Format: cell-based
# condition set: cAMP increase, CHO cells stably expressing GLP-1R, 10 point dose response, 30 minutes incubation; read-out: EC50
pEC50: −log10 of the molar value.
Record Satisfied whenever pEC50 is at 9 or higher; record Not satisfied when lower.

Is the recorded value of pEC50 equal to or greater than 9 for this molecule? COCCn1c(Cc2ccc(-c3cccc(OCc4ccc(C#N)nc4)n3)cc2F)nc2ccc(C(=O)O)cc21
Not satisfied

* * *

# test protocol: Microsomal stability, human liver microsomes (predicted hepatic clearance)
# condition set: predicted from in vitro microsomal stability data
value type: Predicted Hepatic Clearance (Pred. Cl.) (mL/min/kg)
Respond with the bare value in mL/min/kg.

COc1cc(Cl)ccc1COc1cccc(-c2cc(F)c(Cc3nc4ccc(C(=O)O)cc4n3CC3(CC#N)CC3)cc2F)n1 :: 11

Consider now this further compound.
Suppose we examine the compound N#Cc1ccc(COc2cccc(-c3cc(F)c(Cc4nc5ccc(C(=O)O)cc5n4CCNc4ccccc4)cc3F)n2)c(F)c1 ; what Predicted Hepatic Clearance (Pred. Cl.) value has been reported?
8
